- TARGET_UNDER_TEST: Transitional endoplasmic reticulum ATPase (Homo sapiens) (UniProt P55072)
- Sequence (P55072 whole entry, looked up): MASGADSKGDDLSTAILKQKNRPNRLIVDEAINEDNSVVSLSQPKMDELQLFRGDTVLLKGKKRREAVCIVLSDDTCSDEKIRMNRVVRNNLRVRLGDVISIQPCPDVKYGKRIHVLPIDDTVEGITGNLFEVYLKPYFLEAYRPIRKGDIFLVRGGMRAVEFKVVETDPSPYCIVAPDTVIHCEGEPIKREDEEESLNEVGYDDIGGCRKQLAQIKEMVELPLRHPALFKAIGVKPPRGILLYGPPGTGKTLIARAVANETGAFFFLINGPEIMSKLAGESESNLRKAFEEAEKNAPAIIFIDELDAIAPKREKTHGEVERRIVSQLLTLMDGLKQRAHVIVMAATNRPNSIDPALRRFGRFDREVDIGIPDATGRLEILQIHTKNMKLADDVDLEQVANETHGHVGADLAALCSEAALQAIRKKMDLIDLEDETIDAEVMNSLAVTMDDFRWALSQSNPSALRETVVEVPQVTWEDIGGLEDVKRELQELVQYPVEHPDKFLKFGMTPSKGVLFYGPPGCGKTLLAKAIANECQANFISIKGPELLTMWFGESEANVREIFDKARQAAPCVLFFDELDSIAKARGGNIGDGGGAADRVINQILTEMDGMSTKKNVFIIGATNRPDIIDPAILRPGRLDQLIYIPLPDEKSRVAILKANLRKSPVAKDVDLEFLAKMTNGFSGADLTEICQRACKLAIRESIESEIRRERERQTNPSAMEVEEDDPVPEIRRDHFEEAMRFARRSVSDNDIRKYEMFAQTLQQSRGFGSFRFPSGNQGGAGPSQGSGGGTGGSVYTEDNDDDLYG
- TEST_DETAILS: p97 ATP hydrolysis blockers – biochemical, primary screen (AID 1481);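 further: 0% = DMSO vehicle and 100% = wells lacking enzyme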
- MEASUREMENT_PARAMETERS: recombinant p97 ATPase, Kinase-Glo ATP luminescence, 3 h; at 8 µM; hits give high values
The campaign covered roughly 220,000 compounds. About 920 (0.42%) were called active. The full list was thinned out, with actives kept by preference.
Known inhibition of a selection of molecules

| MOLECULE | TARGET_UNDER_TEST | inhibition |
| --- | --- | --- |
| O=c1[nH]c(CN2CC=C(c3ccccc3)CC2)nc2scc(-c3cccs3)c12 | Transitional endoplasmic reticulum ATPase (Homo sapiens) (UniProt P55072) | 15.1% (active) |
| CNC(=O)Nc1ccc(C(O)(C(=O)OC)C(F)(F)F)cc1 (centres undefined) | Transitional endoplasmic reticulum ATPase (Homo sapiens) (UniProt P55072) | -1.08% (inactive) |
| O=c1c2ccccc2nc(-c2ccccc2)n1-c1ccccn1 | Transitional endoplasmic reticulum ATPase (Homo sapiens) (UniProt P55072) | 3.57% (inactive) |
| CC(=O)Nc1ccccc1C(=O)OCC(=O)c1cccc2ccccc12 | Transitional endoplasmic reticulum ATPase (Homo sapiens) (UniProt P55072) | -0.08% (inactive) |
